Test system: S. suis (9) clinical isolates
Test: Susceptibility of clinical isolates (MIC)
Format: cell-based, Streptococcus suis
Conditions: Streptococcus suis; S. suis, 9 clinical isolates; read-out: MIC90
Protocol: Susceptibility testing of oxazolidinone-fluoroquinolone hybrids against various bacteria was performed by the broth microdilution method as outlined by the Clinical and Laboratory Standards Institute (CLSI). […] A final inoculum of 5 × 10^5 CFU/mL was used and plates were read after incubation for 16–24 h at 35 °C. […]
Reported MIC90 by item:
readout.name: MIC90 (µg/mL)

# molecule, readout.value
data = [
    ("CC1CCc2c(N3CCC(O)CC3)c(F)cc3c(=O)c(C(=O)O)cn1c23 (stereo not drawn) [NDFX, nadifloxacin]", 2),
    ("COc1c(N2CCNC(C)C2)c(F)cc2c(=O)c(C(=O)O)cn(C3CC3)c12 (stereo not drawn) [GAFX, gatifloxacin]", 4),
    ("CC(=O)NC[C@H]1CN(c2ccc(N3CCOCC3)c(F)c2)C(=O)O1 [LZD, linezolid, reference compound]", 4),
    ("CCN1CCN(c2cc3c(cc2F)c(=O)c(C(=O)O)cn3C2CC2)CC1 [ENR, enrofloxacin]", 4),
    ("C[C@H]1CCc2c(N3CCC(O)(COc4ccc(N5C[C@H](CO)OC5=O)cc4F)CC3)c(F)cc3c(=O)c(C(=O)O)cn1c23 [OBP-4]", 0.25),
    ("CC1Sc2c(C(=O)O)c(=O)c3cc(F)c(N4CCC(O)(COc5ccc(N6C[C@H](CO)OC6=O)cc5F)CC4)cc3n21 (stereo partly drawn) [OBP-5]", 0.125),
]

###

Quick reference for MIC among some compounds
system: LZD and quinolone-resistant E. faecium; test: MIC against drug-resistant strain; type: cell-based; conditions: Enterococcus faecium; E. faecium, LZD and quinolone-resistant; read-out: MIC

# compound, system.under.test, result.units, comparison.operator, MIC
records = [
    ("CCN1CCN(c2cc3c(cc2F)c(=O)c(C(=O)O)cn3C2CC2)CC1", "LZD and quinolone-resistant E. faecium", "µg/mL", ">", 32),
    ("C[C@H]1CCc2c(N3CCC(O)(COc4ccc(N5C[C@H](CO)OC5=O)cc4F)CC3)c(F)cc3c(=O)c(C(=O)O)cn1c23", "LZD and quinolone-resistant E. faecium", "µg/mL", "=", 0.5),
    ("CC1CCc2c(N3CCC(O)CC3)c(F)cc3c(=O)c(C(=O)O)cn1c23 (stereo not drawn)", "LZD and quinolone-resistant E. faecium", "µg/mL", "=", 16),
    ("COc1c(N2CCNC(C)C2)c(F)cc2c(=O)c(C(=O)O)cn(C3CC3)c12 (stereo not drawn)", "LZD and quinolone-resistant E. faecium", "µg/mL", "=", 8),
    ("CC(=O)NC[C@H]1CN(c2ccc(N3CCOCC3)c(F)c2)C(=O)O1 [LZD, linezolid, reference compound]", "LZD and quinolone-resistant E. faecium", "µg/mL", "=", 16),
    ("CC1Sc2c(C(=O)O)c(=O)c3cc(F)c(N4CCC(O)(COc5ccc(N6C[C@H](CO)OC6=O)cc5F)CC4)cc3n21 (stereo partly drawn)", "LZD and quinolone-resistant E. faecium", "µg/mL", "=", 0.125),
]

###

MIC Range values for the compounds below.
system: E. faecalis (72) clinical isolates; experiment: Susceptibility of clinical isolates (MIC); format: cell-based, Enterococcus faecalis; settings: E. faecalis, 72 clinical isolates

# compound, MIC Range
data = [
    ("CCN1CCN(c2cc3c(cc2F)c(=O)c(C(=O)O)cn3C2CC2)CC1", "≤0.0625 to 2 µg/mL"),
    ("COc1c(N2CCNC(C)C2)c(F)cc2c(=O)c(C(=O)O)cn(C3CC3)c12 (stereo not drawn)", "0.125 to 2 µg/mL"),
    ("CC1Sc2c(C(=O)O)c(=O)c3cc(F)c(N4CCC(O)(COc5ccc(N6C[C@H](CO)OC6=O)cc5F)CC4)cc3n21 (stereo partly drawn)", "≤0.0625 to 0.5 µg/mL"),
    ("CC(=O)NC[C@H]1CN(c2ccc(N3CCOCC3)c(F)c2)C(=O)O1 [LZD, linezolid, reference compound]", "0.5 to 8 µg/mL"),
    ("CC1CCc2c(N3CCC(O)CC3)c(F)cc3c(=O)c(C(=O)O)cn1c23 (stereo not drawn)", "0.125 to 2 µg/mL"),
    ("C[C@H]1CCc2c(N3CCC(O)(COc4ccc(N5C[C@H](CO)OC5=O)cc4F)CC3)c(F)cc3c(=O)c(C(=O)O)cn1c23", "≤0.0625 to 1 µg/mL"),
]

###

system: LZD-resistant E. faecalis; assay: microbe, parasite or virus in culture; assay type: cell-based; conditions: Enterococcus faecalis
Measured MIC, listed per entry.

# compound, result.units, MIC
rows = [
    ("CC(=O)NC[C@H]1CN(c2ccc(N3CCOCC3)c(F)c2)C(=O)O1 [LZD, linezolid, reference compound]", "µg/mL", 8),
    ("CCN1CCN(c2cc3c(cc2F)c(=O)c(C(=O)O)cn3C2CC2)CC1", "µg/mL", 1),
    ("C[C@H]1CCc2c(N3CCC(O)(COc4ccc(N5C[C@H](CO)OC5=O)cc4F)CC3)c(F)cc3c(=O)c(C(=O)O)cn1c23", "µg/mL", 1),
    ("CC1CCc2c(N3CCC(O)CC3)c(F)cc3c(=O)c(C(=O)O)cn1c23 (stereo not shown)", "µg/mL", 1),
    ("CC1Sc2c(C(=O)O)c(=O)c3cc(F)c(N4CCC(O)(COc5ccc(N6C[C@H](CO)OC6=O)cc5F)CC4)cc3n21 (stereo partly shown)", "µg/mL", 0.25),
    ("CN[C@H](CC(C)C)C(=O)N[C@H]1C(=O)N[C@@H](CC(N)=O)C(=O)N[C@H]2C(=O)N[C@H]3C(=O)N[C@H](C(=O)N[C@H](C(=O)O)c4cc(O)cc(O)c4-c4cc3ccc4O)[C@H](O)c3ccc(c(Cl)c3)Oc3cc2cc(c3O[C@@H]2O[C@H](CO)[C@@H](O)[C@H](O)[C@H]2O[C@H]2C[C@](C)(N)[C@H](O)[C@H](C)O2)Oc2ccc(cc2Cl)[C@H]1O", "µg/mL", 2),
    ("COc1c(N2CCNC(C)C2)c(F)cc2c(=O)c(C(=O)O)cn(C3CC3)c12 (stereo not shown)", "µg/mL", 0.5),
]

###

biological target: E. coli DNA gyrase (Escherichia coli, UniProt P0AES4+P0AES6); assay: DNA gyrase supercoiling assay; conditions: supercoiling of relaxed pBR322, 37 °C, 30 min
readout.name: IC50 (µM)

# compound, readout.value
data = [
    ("CC1Sc2c(C(=O)O)c(=O)c3cc(F)c(N4CCC(O)(COc5ccc(N6C[C@H](CO)OC6=O)cc5F)CC4)cc3n21 (some centres unmarked)", 20),
]

###

test system: CIP-resistant S. haemolyticus; experiment: MIC against drug-resistant strain; format: cell-based; details: Staphylococcus haemolyticus; S. haemolyticus, CIP-resistant; read-out: MIC
MIC overview

# molecule, result.units, comparison.operator, MIC
data = [
    ("CC1CCc2c(N3CCC(O)CC3)c(F)cc3c(=O)c(C(=O)O)cn1c23 (stereo not drawn) [NDFX, nadifloxacin]", "µg/mL", "=", 4),
    ("COc1c(N2CCNC(C)C2)c(F)cc2c(=O)c(C(=O)O)cn(C3CC3)c12 (stereo not drawn) [GAFX, gatifloxacin]", "µg/mL", "=", 2),
    ("C[C@H]1CCc2c(N3CCC(O)(COc4ccc(N5C[C@H](CO)OC5=O)cc4F)CC3)c(F)cc3c(=O)c(C(=O)O)cn1c23 [OBP-4]", "µg/mL", "=", 0.5),
    ("CCN1CCN(c2cc3c(cc2F)c(=O)c(C(=O)O)cn3C2CC2)CC1 [ENR, enrofloxacin]", "µg/mL", "=", 8),
    ("CC(=O)NC[C@H]1CN(c2ccc(N3CCOCC3)c(F)c2)C(=O)O1 [LZD, linezolid, reference compound]", "µg/mL", "=", 8),
    ("CC1Sc2c(C(=O)O)c(=O)c3cc(F)c(N4CCC(O)(COc5ccc(N6C[C@H](CO)OC6=O)cc5F)CC4)cc3n21 (stereo partly drawn) [OBP-5]", "µg/mL", "≤", 0.0625),
]

###

test system: E. faecalis (ATCC29212); assay: MIC, broth microdilution (CLSI), standard strain; assay type: cell-based; details: Enterococcus faecalis; E. faecalis (ATCC29212); read-out: MIC
Below, each entry is listed with its recorded MIC.
readout.name: MIC (µg/mL)

# compound, result.units, readout.value
data = [
    ("C[C@H]1COc2c(N3CCC(O)(COc4ccc(N5C[C@H](CO)OC5=O)cc4F)CC3)c(F)cc3c(=O)c(C(=O)O)cn1c23", "µg/mL", 1),
    ("CN1COc2c(N3CCC(O)(COc4ccc(N5C[C@H](CO)OC5=O)cc4F)CC3)c(F)cc3c(=O)c(C(=O)O)cn1c23", "µg/mL", 1),
    ("C[C@H]1COc2c(N3CCC(O)(COc4ccc(N5C[C@H](CO)OC5=O)cc4F)CC3)c(F)c(N)c3c(=O)c(C(=O)O)cn1c23", "µg/mL", 1),
    ("O=C(O)c1cn(C2CC2)c2cc(N3CCC(O)(COc4ccc(N5C[C@H](CO)OC5=O)cc4F)CC3)c(F)cc2c1=O [CZD, cadazolid, reference compound]", "µg/mL", 0.5),
    ("CN1COc2c(N3CC4C(C3)C4Nc3ccc(N4C[C@H](CO)OC4=O)cc3F)c(F)cc3c(=O)c(C(=O)O)cn1c23 (stereo partly drawn)", "µg/mL", 4),
    ("CC1Sc2c(C(=O)O)c(=O)c3cc(F)c(N4CCC(O)(COc5ccc(N6C[C@H](CO)OC6=O)cc5F)CC4)cc3n21 (stereo partly drawn)", "µg/mL", 1),
    ("CC(=O)NC[C@H]1CN(c2ccc(N3CCOCC3)c(F)c2)C(=O)O1 [LZD, linezolid, reference compound]", "µg/mL", 4),
    ("O=C(O)c1cn(C2CC2)c2cc(N3CC4C(C3)C4Nc3ccc(N4C[C@H](CO)OC4=O)cc3F)c(F)cc2c1=O (stereo partly drawn)", "µg/mL", 1),
    ("C[C@H]1CCc2c(N3CCC(O)(COc4ccc(N5C[C@H](CO)OC5=O)cc4F)CC3)c(F)cc3c(=O)c(C(=O)O)cn1c23", "µg/mL", 0.25),
]

Cited source for all entries: paper PMC6514978
